# Test system: RXRa homodimer (NR concentration 180 nM)
# Assay explanation: PBM binding z-score (relative to random genomic background probes); higher = stronger binding; sequences stand for … in GC…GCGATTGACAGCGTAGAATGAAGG
Property label: PBM binding z-score

INSERT INTO measurements (residue_sequence, target_under_test, value_observed) VALUES
  ('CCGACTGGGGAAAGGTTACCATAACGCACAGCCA', 'RXRa homodimer (NR concentration 180 nM)', 2.28),
  ('TCTATTAGTTGAAGGGCAACCGTCGAGTCCGTTT', 'RXRa homodimer (NR concentration 180 nM)', 0.558),
  ('GTACCAAGGGGAATAGGTCGTTGATGAGTAGGCG', 'RXRa homodimer (NR concentration 180 nM)', 0.651),
  ('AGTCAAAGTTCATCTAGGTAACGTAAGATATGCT', 'RXRa homodimer (NR concentration 180 nM)', 4.97),
  ('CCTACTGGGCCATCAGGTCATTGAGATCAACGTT', 'RXRa homodimer (NR concentration 180 nM)', 1.43),
  ('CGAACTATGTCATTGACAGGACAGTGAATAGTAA', 'RXRa homodimer (NR concentration 180 nM)', 0.127);

====

# System: RXRa homodimer (NR concentration 180 nM)
# Assay explanation: PBM binding z-score (relative to random genomic background probes); higher = stronger binding; sequences stand for … in GC…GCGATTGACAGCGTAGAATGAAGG
# PBM binding z-score >= 4 gives Satisfied, anything below gives Not satisfied

INSERT INTO results (residue_sequence, target_under_test, group) VALUES
  ('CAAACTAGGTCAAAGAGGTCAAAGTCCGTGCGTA', 'RXRa homodimer (NR concentration 180 nM)', 'Satisfied'),
  ('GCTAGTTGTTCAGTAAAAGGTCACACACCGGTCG', 'RXRa homodimer (NR concentration 180 nM)', 'Satisfied'),
  ('CGTAGTTGGTCAGGAGGTCACACACCGGATATGA', 'RXRa homodimer (NR concentration 180 nM)', 'Satisfied'),
  ('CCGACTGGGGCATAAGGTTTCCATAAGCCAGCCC', 'RXRa homodimer (NR concentration 180 nM)', 'Not satisfied'),
  ('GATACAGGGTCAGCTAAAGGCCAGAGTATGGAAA', 'RXRa homodimer (NR concentration 180 nM)', 'Satisfied'),
  ('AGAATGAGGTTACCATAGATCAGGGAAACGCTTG', 'RXRa homodimer (NR concentration 180 nM)', 'Not satisfied'),
  ('ATCTCTTGGTAAAGTTCAGTGAAAGATCGATAGA', 'RXRa homodimer (NR concentration 180 nM)', 'Not satisfied'),
  ('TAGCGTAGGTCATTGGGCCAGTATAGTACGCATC', 'RXRa homodimer (NR concentration 180 nM)', 'Not satisfied'),
  ('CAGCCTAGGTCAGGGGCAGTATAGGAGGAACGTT', 'RXRa homodimer (NR concentration 180 nM)', 'Not satisfied');

====

# System: LXRb homodimer (NR concentration 270 nM)
# Assay explanation: PBM binding z-score (relative to random genomic background probes); higher = stronger binding; sequences stand for … in GC…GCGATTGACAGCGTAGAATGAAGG
Below, each entry is listed with its recorded PBM binding z-score.
Property label: PBM binding z-score

INSERT INTO results (residue_sequence, target_under_test, value_observed) VALUES
  ('GGAACGAGGGCATTCGAGTGGATAGCATGGCGAT', 'LXRb homodimer (NR concentration 270 nM)', -0.833),
  ('CAGCCTAGGCCAGGGCCAGTATAGGAGGAACGTT', 'LXRb homodimer (NR concentration 270 nM)', -1.72),
  ('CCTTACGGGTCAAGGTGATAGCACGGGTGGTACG', 'LXRb homodimer (NR concentration 270 nM)', -0.389),
  ('GCTTGTAGATCAAGGTTCAGAAAGACTAAGCTAA', 'LXRb homodimer (NR concentration 270 nM)', -0.768),
  ('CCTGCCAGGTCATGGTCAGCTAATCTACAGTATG', 'LXRb homodimer (NR concentration 270 nM)', -0.151),
  ('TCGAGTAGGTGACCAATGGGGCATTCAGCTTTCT', 'LXRb homodimer (NR concentration 270 nM)', -1.02),
  ('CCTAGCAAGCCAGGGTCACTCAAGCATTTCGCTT', 'LXRb homodimer (NR concentration 270 nM)', -1.12),
  ('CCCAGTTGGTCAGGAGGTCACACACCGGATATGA', 'LXRb homodimer (NR concentration 270 nM)', 0.535),
  ('TCTCGGAGGACCCGAAAGGTCAGAGCTCGACATC', 'LXRb homodimer (NR concentration 270 nM)', -0.541),
  ('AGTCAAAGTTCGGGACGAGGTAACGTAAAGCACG', 'LXRb homodimer (NR concentration 270 nM)', -0.3),
  ('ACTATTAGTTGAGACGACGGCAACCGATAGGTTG', 'LXRb homodimer (NR concentration 270 nM)', 0.14),
  ('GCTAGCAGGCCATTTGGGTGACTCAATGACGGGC', 'LXRb homodimer (NR concentration 270 nM)', -1.19),
  ('TGAATGCGGTTATAAGATCAGGGAACGTTGCAAA', 'LXRb homodimer (NR concentration 270 nM)', -0.259),
  ('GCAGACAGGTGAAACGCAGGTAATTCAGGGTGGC', 'LXRb homodimer (NR concentration 270 nM)', -1.33),
  ('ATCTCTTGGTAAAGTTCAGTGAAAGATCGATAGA', 'LXRb homodimer (NR concentration 270 nM)', 1.5),
  ('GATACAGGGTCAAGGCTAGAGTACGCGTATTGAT', 'LXRb homodimer (NR concentration 270 nM)', 0.158),
  ('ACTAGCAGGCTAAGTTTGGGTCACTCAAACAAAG', 'LXRb homodimer (NR concentration 270 nM)', -0.557),
  ('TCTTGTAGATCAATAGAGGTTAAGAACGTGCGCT', 'LXRb homodimer (NR concentration 270 nM)', -0.115),
  ('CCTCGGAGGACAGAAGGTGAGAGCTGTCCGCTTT', 'LXRb homodimer (NR concentration 270 nM)', -0.923),
  ('CATACTGGGTCAGCTAGGCCAGAGTAGGGACGGC', 'LXRb homodimer (NR concentration 270 nM)', -0.198),
  ('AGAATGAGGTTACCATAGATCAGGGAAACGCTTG', 'LXRb homodimer (NR concentration 270 nM)', -0.0924),
  ('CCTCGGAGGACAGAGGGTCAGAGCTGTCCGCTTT', 'LXRb homodimer (NR concentration 270 nM)', -1.2);
